Preemergence herbicidal rating ORYSAT values by entry
# System: ORYSAT (Rice, Tebonnet)
# assay_overview: Preemergence herbicidal evaluation
# Assay type: in vivo, Oryza sativa, (L.) Tebonnet
# condition_parameters: rate 0.0156 kg/ha; rated 4-5 weeks after treatment

{"molecule": "CN1C(=O)C(CC(=O)O)SC1=Nc1cc(-n2c(=O)cc(C(F)(F)F)n(C)c2=O)c(F)cc1Cl (stereo not drawn)", "system_name": "ORYSAT (Rice, Tebonnet)", "Preemergence herbicidal rating ORYSAT": 0.0}
{"molecule": "C=CCN1C(=O)C(CC(=O)OC)SC1=Nc1cc(-n2c(=O)cc(C(F)(F)F)n(C)c2=O)c(F)cc1Cl (stereo not drawn)", "system_name": "ORYSAT (Rice, Tebonnet)", "Preemergence herbicidal rating ORYSAT": 0.0}
{"molecule": "COC(=O)C(C)OC(=O)CN1C(=O)CSC1=Nc1cc(-n2c(=O)cc(C(F)(F)F)n(C)c2=O)c(F)cc1Cl (stereo not drawn)", "system_name": "ORYSAT (Rice, Tebonnet)", "Preemergence herbicidal rating ORYSAT": 0.0}
{"molecule": "COC(=O)[C@@H](Cc1ccccc1)N1C(=O)CSC1=Nc1cc(-n2c(=O)cc(C(F)(F)F)n(C)c2=O)c(F)cc1Cl", "system_name": "ORYSAT (Rice, Tebonnet)", "Preemergence herbicidal rating ORYSAT": 0.0}
{"molecule": "Cn1c(C(F)(F)F)cc(=O)n(-c2cc(N=C3SCC(=O)N3CC(=O)OC(C)(C)C)c(Cl)cc2F)c1=O", "system_name": "ORYSAT (Rice, Tebonnet)", "Preemergence herbicidal rating ORYSAT": 0.0}
{"molecule": "CCOC(=O)[C@H](Cc1ccccc1)N1C(=O)CSC1=Nc1cc(-n2c(=O)cc(C(F)(F)F)n(C)c2=O)c(F)cc1Cl", "system_name": "ORYSAT (Rice, Tebonnet)", "Preemergence herbicidal rating ORYSAT": 0.0}
{"molecule": "CC(C)C[C@@H](C(=O)O)N1C(=O)CSC1=Nc1cc(-n2c(=O)cc(C(F)(F)F)n(C)c2=O)c(F)cc1Cl", "system_name": "ORYSAT (Rice, Tebonnet)", "Preemergence herbicidal rating ORYSAT": 0.0}
{"molecule": "CCOC(=O)CN1C(=O)CN(C)C1=Nc1cc(-n2c(=O)cc(C(F)(F)F)n(C)c2=O)c(F)cc1Cl", "system_name": "ORYSAT (Rice, Tebonnet)", "Preemergence herbicidal rating ORYSAT": 0.0}
{"molecule": "C[C@@H](C(=O)O)N1C(=O)CS/C1=N/c1cc(-n2c(=O)cc(C(F)(F)F)n(C)c2=O)c(F)cc1Cl", "system_name": "ORYSAT (Rice, Tebonnet)", "Preemergence herbicidal rating ORYSAT": 0.0}
